ENDPOINT_LABEL: melting point

MOLECULE: CCCc1nn(-c2ccc(C(F)(F)F)cn2)cc1CCCOc1c(Br)cccc1CC(=O)O
ENDPOINT_LABEL: melting point
ASSAY_RESULT: 145 to 146 °C
--
MOLECULE: CN1Cc2c(C#CC(C)(C)O)ncn2-c2ccc(F)cc2C1=O
ENDPOINT_LABEL: melting point
ASSAY_RESULT: 163 to 164 °C
--
MOLECULE: COC(=O)CS(=O)(=O)Nc1ccc(F)c(C(F)(F)F)c1
ENDPOINT_LABEL: melting point
ASSAY_RESULT: 111 to 112 °C
--
MOLECULE: NC(=O)Nc1ccc(OCCn2ccnc2)cc1
ENDPOINT_LABEL: melting point
ASSAY_RESULT: 199 to 201 °C
--
MOLECULE: CSc1ncc2cc(Oc3c(F)cccc3F)c(=O)n(C)c2n1
ENDPOINT_LABEL: melting point
ASSAY_RESULT: 247 to 251 °C

## Input Item under review: `CS(=O)(=O)OCN1C=NN(c2c(Cl)cc(C(F)(F)F)cc2Cl)C1` . Reported melting point?
## Output 96 to 97 °C

## Input Item under review: `C#CCn1c(-c2cc(Cl)nc(Cl)c2)nc(OS(=O)(=O)C(F)(F)F)c(CC)c1=O` . Reported melting point?
## Output 112 to 114 °C

## Input Item under review: CC(=O)NC1CCc2c(n(C)c3ccccc23)C1 (stereo not given) . Reported melting point?
## Output 171 to 172 °C

## Input Item under review: `COc1ccc(-c2ccc(C(=O)Nc3cc4ncc(CN5CCCC5)cc4cc3Cl)cc2)cc1` . Reported melting point?
## Output 184 °C

## Input Item under review: `O=C1NCC2(CCNCC2)O1` . Reported melting point?
## Output 95 to 96 °C

###

ENDPOINT_LABEL: melting point

COMPOUND: c1ccc(CC[C@H]2CNCCN2)cc1
melting point: 114 to 115 °C
--
COMPOUND: Cc1cc(=O)[nH]c(SCc2ccccn2)n1
melting point: 154 to 156 °C
--
COMPOUND: Clc1nnc(CN2CC3(COc4cc5c(cc43)OCO5)c3ccccc32)s1 (stereo unspecified)
melting point: 194 to 197 °C
--
COMPOUND: CC1(C)CCC(C)(C)c2cc([N+](=O)[O-])c(O)cc21
melting point: 139 °C
--
COMPOUND: COc1ccc(Cn2c(=O)cc(-c3nccn3C)c3cnc(SC)nc32)cc1Cl
melting point: 218 to 220 °C
--
COMPOUND: CCCOC(C)c1ccc(-c2ccc(C(=O)O)cc2)cc1 (single isomer, unassigned; (+))
melting point: 172 °C
--
COMPOUND: Cn1cnc(-c2ccccc2)c1-c1nn(-c2cccc(C(F)(F)F)c2)ccc1=O
melting point: 214 to 216 °C
--
COMPOUND: COc1ccc(N)c(C2Cc3ccccc3N2)c1 (stereo unspecified)
melting point: 120 to 123 °C
--
COMPOUND: CCSc1c(C)nn(-c2c(Cl)cc(C(F)(F)F)cc2Cl)c1N
melting point: 117 °C
--
COMPOUND: CCOc1ccc2c(c1)C(C)(c1ccccc1Cl)C(=O)N2S(=O)(=O)c1ccc(C(=O)NC(C)(C)C)cc1 (stereo unspecified)
melting point: 157 °C

Now turn to the next compound.
## Input Item under review: `CCCOc1ccc(F)c2c1c(CCN(C)C)cn2CC` . Reported melting point?
## Output 49 to 50 °C

###

Property: melting point; scope: individual compounds

Look over these answered cases.
COMPOUND: CC(=O)N1OCC(=O)N(CCl)C1c1ccccc1 (stereo unspecified)
ASSAY_RESULT: 171 to 172 °C

COMPOUND: Nc1c([N+](=O)[O-])ccc(Sc2ccccc2)c1Cl
ASSAY_RESULT: 144 to 146 °C

COMPOUND: O=C(CC(Cc1cccc2ccccc12)C(=O)O)NCCc1c[nH]c2ccccc12 (stereo unspecified)
ASSAY_RESULT: 73 to 75 °C

COMPOUND: O=C(NC(=O)c1cc(Cl)cc(Cl)c1)NC1CN2CCC1CC2 (stereo unspecified)
ASSAY_RESULT: 253 to 254 °C

COMPOUND: COc1ccc(C(=O)c2[nH]c3cc(Cl)ccc3c2CC(=O)O)cc1
ASSAY_RESULT: 187 to 190 °C

COMPOUND: COc1cc2nc(COc3ccc(CC4SC(=O)NC4=O)cc3)n(C)c(=O)c2cc1OC (stereo unspecified)
ASSAY_RESULT: 252 °C

COMPOUND: N#Cc1ccc(N2C(=O)NC(CO)(CO)C2=O)cc1C(F)(F)F
ASSAY_RESULT: 207 to 208 °C

COMPOUND: COc1ccc(-c2cc3cc(F)c(F)cc3[nH]2)cc1NCc1cccc([N+](=O)[O-])c1
ASSAY_RESULT: 212 to 214 °C

## Input Item under review: `CSC1=C(c2ccc(O)cc2)C(=O)c2cc(O)ccc21` . Reported melting point?
## Output 90 to 92 °C

## Input Item under review: `NC(=NO)c1ccc(-c2n[nH]c3c2Cc2ccccc2-3)cc1` . Reported melting point?
## Output > 300 °C

## Input Item under review: `CC1=CC(=O)C(=Cc2ccc(O)cc2O)O1` . Reported melting point?
## Output 239 to 242 °C

###

Property: melting point; scope: individual molecules

Look over these answered cases.
MOLECULE: CC1CC=C(Nc2ccccc2)c2ncc(C(=O)O)c(=O)n21 (stereo not drawn)
ASSAY_RESULT: 160 to 162 °C
//
MOLECULE: COCOc1cc(CO)n(Cc2ccc(Cl)cc2Cl)n1
ASSAY_RESULT: 82 to 83 °C
//
MOLECULE: COc1cc([N+](=O)[O-])c2nccc(C)c2c1Oc1ccc(Cl)cc1Cl
ASSAY_RESULT: 166 to 168 °C
//
MOLECULE: CCCCN(c1nc(Cl)nc(N(CCCC)C2CC(C)(C)N(OC3CCCCC3)C(C)(C)C2)n1)C1CC(C)(C)N(OC2CCCCC2)C(C)(C)C1
ASSAY_RESULT: 75 to 82 °C
//
MOLECULE: COc1ccc(CCNC(=O)CCc2ccccc2C(=O)NCCc2ccccc2)cc1OC
ASSAY_RESULT: 122 to 123 °C

## Input Item under review: `CN(C)CCc1c[nH]c2ccc(Br)cc12` . Reported melting point?
## Output 82 to 85 °C

## Input Item under review: `COc1c(OCc2ccccc2)cnc(CO)c1C` . Reported melting point?
## Output 70 to 73 °C

## Input Item under review: `Cc1c(-c2ccccc2)c(N2CC[C@H](N(C)C)C2)c2oc(N3CCOCC3)nc2c1C#N` . Reported melting point?
## Output 215 to 217 °C

## Input Item under review: `CS(=O)(=O)Nc1ccc(OCC2CCN(C(=O)OCc3ccccc3)CC2)cc1` . Reported melting point?
## Output 150 to 151 °C

## Input Item under review: CC1COc2c(OC3CCN(C)CC3)c(F)cc3c(=O)c(C(=O)O)cn1c23 (stereo not drawn) . Reported melting point?
## Output 234 to 238 °C

## Input Item under review: `Cc1cc(-c2ccc(Cl)cc2)cn2c(-c3nc(-c4ccc(S(N)(=O)=O)cc4)no3)cnc12` . Reported melting point?
## Output 311 °C

## Input Item under review: `N#CC(=NOS(=O)(=O)CCCCl)c1cccs1` . Reported melting point?
## Output 56 to 58 °C

## Input Item under review: `Clc1ccc2c(c1)CCC(N1CCCC1)=C2` . Reported melting point?
## Output 117 to 118 °C

## Input Item under review: CC1(C)C(C(=O)O)C12C=CC=C2 (stereo not drawn) . Reported melting point?
## Output 126 to 129 °C

## Input Item under review: FC(F)c1cc(Cl)nc2c1cnn2C1CCCCO1 (stereo not drawn) . Reported melting point?
## Output 93 °C

## Input Item under review: CN1CCCC1C1CCCN(CC(=O)N2c3ccccc3NC(=O)c3ccccc32)C1 (stereo not drawn) . Reported melting point?
## Output 161 to 163 °C

## Input Item under review: `N#Cc1ccc(OC[C@H]2C[C@@H](O)CN2c2ccc(C#N)c3ccccc23)c2ccccc12` . Reported melting point?
## Output 123 to 126 °C

## Input Item under review: CCCC1=C([N+](=O)[O-])C(c2cccc3ccccc23)c2c[nH]nc2N1 (stereo not drawn) . Reported melting point?
## Output 226 °C

## Input Item under review: `O=C(NCc1cocn1)c1ccnc(N2CCN(Cc3ccc(F)cc3)C2=O)c1` . Reported melting point?
## Output 197 to 199 °C

## Input Item under review: `CON=C(C(N)=O)c1cnccn1` . Reported melting point?
## Output 188 to 190 °C

## Input Item under review: O=C1CCC(CCC(=O)OCc2ccc(Cl)cc2)N1 (stereo not drawn) . Reported melting point?
## Output 63 to 64 °C

## Input Item under review: CCC(=O)NCC1CC1c1cccc2nc(C)nn12 (stereo not drawn) . Reported melting point?
## Output 118 to 119 °C

## Input Item under review: `Cc1nc(N)c2nc(C)n(NC3CCCCC3)c2c1C` . Reported melting point?
## Output 242 to 244 °C

## Input Item under review: CCC(=O)NCCC1CCc2cc(F)c(OC)cc21 (stereo not drawn) . Reported melting point?
## Output 76 to 78 °C

## Input Item under review: `N#CCOc1ccc2cc(-c3cnc(-c4cn(Cc5ccccc5)c5ccccc45)o3)ccc2c1` . Reported melting point?
## Output 205 to 208 °C

## Input Item under review: `CCCCCNC(=O)N(C)c1cccc(-c2ccc(/C=C(\OCC)C(=O)O)cc2)n1` . Reported melting point?
## Output 162 °C
